biological target: Human immunodeficiency virus type 1 integrase (Human immunodeficiency virus 1, UniProt Q7ZJM1); test: Inhibitory concentration to inhibit HIV-1 integrase by 3' -processing
Sequence (Q7ZJM1 whole entry): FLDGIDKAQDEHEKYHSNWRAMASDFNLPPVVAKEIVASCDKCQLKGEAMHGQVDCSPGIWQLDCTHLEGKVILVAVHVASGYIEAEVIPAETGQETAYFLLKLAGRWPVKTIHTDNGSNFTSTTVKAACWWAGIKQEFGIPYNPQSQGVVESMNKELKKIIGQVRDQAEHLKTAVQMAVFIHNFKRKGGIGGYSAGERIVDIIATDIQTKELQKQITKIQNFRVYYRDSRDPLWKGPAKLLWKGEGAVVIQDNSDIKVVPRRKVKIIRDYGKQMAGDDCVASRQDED
QUANTITY: IC50 (µM)
Numeric only. Scale: µM

Asked: For the compound CC1=NN(c2ccccc2)C(=O)C1/N=N/c1ccc(S(=O)(=O)Nc2scc(C)c2C)cc1 (stereo unspecified) , what IC50 is on record?
Given back: 124

----------
# IC50 listing for each entry below
molecular target: Human immunodeficiency virus type 1 integrase (Human immunodeficiency virus 1, UniProt Q7ZJM1); assay: Inhibitory concentration to inhibit HIV-1 integrase by 3' -processing method

A selection of reference data follows.
{"columns": ["MOLECULE", "IC50"],
 "data": [
  ["O=C(O)c1ccccc1/C=N/NC1=CS(=O)(=O)C=C1", "> 200 µM"],
  ["CC(=O)N(C(C)=O)c1nc2c(c(=O)n(C)c(=O)n2C)n1C", "> 200 µM"],
  ["COC(=O)c1noc2c1CSC1=C2CS(=O)(=O)c2ccccc21", "> 200 µM"],
  ["CCOC(=O)C(Cc1cn(S(=O)(=O)c2ccccc2)c2ccccc12)(NC(C)=O)C(=O)OCC", "> 200 µM"],
  ["COc1cc(NS(=O)(=O)c2ccc(C(C)=O)cc2)nc(OC)n1", "> 200 µM"],
  ["CC1=NN(c2ccccc2)C(=O)C1/N=N/c1ccc(S(=O)(=O)Nc2nnc(C)s2)cc1 (centres undefined)", "134 µM"],
  ["O=C1NC(=S)SC1c1ccc(S(=O)(=O)Nc2ncccn2)cc1 (centres undefined)", "28.6 µM"],
  ["Cc1ccccc1CN1C2=NCCN2C(=O)C2=C1CCN(S(=O)(=O)c1ccc(Cl)c(S(N)(=O)=O)c1)C2", "> 200 µM"]
]}

Asked: For the molecule CC1=NN(c2ccccc2)C(=O)C1/N=N/c1ccc(S(=O)(=O)Nc2cc(C)nc(C)n2)cc1 (centres undefined) , what IC50 is on record?
Given back: > 200 µM

Asked: Please answer likewise for `Nc1ncnc2c1ncn2[C@@H]1O[C@H](CO[C@@H]2[C@@H](O)[C@H](OS(=O)(=O)O)[C@H](O)[C@@H](O[C@H]3O[C@@H](CO)[C@@H](O)[C@H](O)[C@@H]3N)[C@]2(O)C(=O)[C@@H](N)CO)[C@@H](O)[C@H]1O`
Given back: > 200 µM

Asked: Please answer likewise for Cc1cc(NS(=O)(=O)c2ccc(N/N=C3/C(=N)C(C)C(=O)C(C)C3=O)cc2)nc(C)n1 (centres undefined)
Given back: > 200 µM

Source listed as ChEMBL document CHEMBL1129973.
